Data origin: patent US10604487B2

Tested on: TNBS-induced colitis
experimentSummary: In vivo efficacy of oral administration in TNBS-induced inflammatory bowel disease model
Parameters: species or system Sprague Dawley rats
conditionsUsed: rat, oral, 1 mg/kg, 5 days
readout: Body weight recovery rate (%)

Cc1nc(NC(=S)NC(C)C)c(C)c(C)c1O ... 72.0%
Cc1nc(NC(=O)Nc2ccccc2)c(C)c(C)c1O ... 69.0%
Cc1nc(NC(=S)NC(=O)c2ccccc2)c(C)c(C)c1O ... 93.8%

Query: Observed Body weight recovery rate (%) on TNBS-induced colitis for Cc1nc(NS(=O)(=O)c2ccc(C(F)(F)F)cc2)c(C)c(C)c1O , please.
Result: 25.0%

Query: Observed Body weight recovery rate (%) on TNBS-induced colitis for Cc1nc(NC(=S)Nc2ccc(Cl)c(Cl)c2)c(C)c(C)c1O , please.
Result: 72.4%

Query: Observed Body weight recovery rate (%) on TNBS-induced colitis for Cc1nc(NC(=S)Nc2cccc(C(F)(F)F)c2)c(C)c(C)c1O , please.
Result: 74.9%
